Listed compounds paired with reported melting point
Use °C as the unit, but write only the number.

INSERT INTO results (compound, measure, test_result) VALUES
  ('CCC1(C)Cc2cc(OCC(=O)O)c(Cl)c(Cl)c2C1=O (stereo not given)', 'melting point', 168);

Could you now consider this next compound?
IN: Any idea what its melting point is? The compound is "CN(C(=O)c1cnn(C)c1C(=O)Nc1ccc2nc(-c3cccnc3)nn2c1)C1CC1"
OUT: 237

* * *

Recorded melting point, one value per entry.

INSERT INTO measurements (compound, test_result) VALUES
  ('Cn1nc(-c2cccc(C(F)(F)F)c2)c(Cl)c1C(=O)O', '180 to 183 °C'),
  ('CCCc1nc(C(C)(O)CC)c(C#N)n1Cc1ccc(-c2ccccc2-c2nnn[nH]2)cc1 (stereo not given)', '141 to 145 °C'),
  ('CC1(O)Nc2cc(O)c(C(C)(C)C)cc2O1 (stereo not given)', '203 to 205 °C');

IN: What does the data say about its melting point? Entry: "COCC(=O)Nc1cc(C(=O)OC)c(O)c2ncc(Cc3ccc(F)cc3)cc12"
OUT: 154 to 155 °C

IN: Moving on to the next compound: "COC(=O)c1cccc(Nc2nccc(-c3cn[nH]c3-c3ccc(F)cc3)n2)c1"
OUT: > 265 °C

IN: Let us now turn to "COc1cc2ncc(OC3CCCCC3)nc2cc1OC1CCCCC1"
OUT: 75 to 78 °C

IN: And the next one, "COC(=O)c1cccc(=O)n1C" ?
OUT: 56 to 57 °C

IN: Continue with "COc1ccccc1Cc1nc2ccccc2c(=O)n1CCCl"
OUT: 109 to 111 °C

IN: Can you handle "CN(SN1CCOCC1)C(=O)ON=C1SCC(=O)NC1(C)C" next?
OUT: 180 to 182 °C

IN: Can you check "C=CCN(CC(N)=O)S(=O)(=O)Cc1cccc(C(F)(F)F)c1" next?
OUT: 91 to 92 °C
